system: OVCAR3 cells; assay: In vitro OVCAR3 cell activity assay (CellTiter-Glo proliferation); format: cell-based; details: Homo sapiens, OVCAR-3, 72 h, 3 days incubation
MEASURED_ENDPOINT: IC50 (nM)
Write down the numeric answer in nM and omit the unit.

Take a look at these entries with their results.
MOLECULE | ENDPOINT_UNIT | RECORDED_VALUE
CN1CCCCN2CCCC[C@@H](C2)Nc2ncc(C(F)(F)F)c(n2)-c2c[nH]c3c(P(C)(C)=O)c(ccc23)C1=O [Compound 3] | nM | 0.6
CP(C)(=O)c1c2ccc3c(c[nH]c13)-c1nc(ncc1C(F)(F)F)N[C@H]1CCCN(CCCCCCO2)C1 [Compound 4] | nM | 0.2
CP(C)(=O)c1c2ccc3c(c[nH]c13)-c1nc(ncc1C(F)(F)F)N[C@H]1CCCCN(CCCCNC2=O)C1 [Compound 6] | nM | 0.6

### Prompt I have this molecule here, CP(C)(=O)c1c2ccc3c(c[nH]c13)-c1nc(ncc1C(F)(F)F)N[C@H]1CCCN(CCCCNC2=O)C1 [Compound 5] , and I need its recorded IC50.
### Response 0.2

### Prompt What do you get for CN1CCCCN2CCC[C@@H](C2)Nc2ncc(C(F)(F)F)c(n2)-c2c[nH]c3c(P(C)(C)=O)c(ccc23)C1=O [Formate of compound 1] ?
### Response 0.3

====

target: CDK9-CyclinT1 (Homo sapiens (Human), UniProt P50750)
Sequence (P50750 whole entry): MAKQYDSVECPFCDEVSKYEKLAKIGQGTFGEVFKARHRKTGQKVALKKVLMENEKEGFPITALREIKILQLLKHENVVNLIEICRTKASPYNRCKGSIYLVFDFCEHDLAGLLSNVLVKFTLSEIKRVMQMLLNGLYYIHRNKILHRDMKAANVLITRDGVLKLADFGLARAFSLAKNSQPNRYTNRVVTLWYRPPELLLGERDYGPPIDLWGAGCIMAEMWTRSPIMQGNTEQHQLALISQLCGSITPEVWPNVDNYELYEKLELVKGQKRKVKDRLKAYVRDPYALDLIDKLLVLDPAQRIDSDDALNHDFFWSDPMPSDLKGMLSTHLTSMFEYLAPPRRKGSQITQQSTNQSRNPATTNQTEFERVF
Sequence (O60563 whole entry partner): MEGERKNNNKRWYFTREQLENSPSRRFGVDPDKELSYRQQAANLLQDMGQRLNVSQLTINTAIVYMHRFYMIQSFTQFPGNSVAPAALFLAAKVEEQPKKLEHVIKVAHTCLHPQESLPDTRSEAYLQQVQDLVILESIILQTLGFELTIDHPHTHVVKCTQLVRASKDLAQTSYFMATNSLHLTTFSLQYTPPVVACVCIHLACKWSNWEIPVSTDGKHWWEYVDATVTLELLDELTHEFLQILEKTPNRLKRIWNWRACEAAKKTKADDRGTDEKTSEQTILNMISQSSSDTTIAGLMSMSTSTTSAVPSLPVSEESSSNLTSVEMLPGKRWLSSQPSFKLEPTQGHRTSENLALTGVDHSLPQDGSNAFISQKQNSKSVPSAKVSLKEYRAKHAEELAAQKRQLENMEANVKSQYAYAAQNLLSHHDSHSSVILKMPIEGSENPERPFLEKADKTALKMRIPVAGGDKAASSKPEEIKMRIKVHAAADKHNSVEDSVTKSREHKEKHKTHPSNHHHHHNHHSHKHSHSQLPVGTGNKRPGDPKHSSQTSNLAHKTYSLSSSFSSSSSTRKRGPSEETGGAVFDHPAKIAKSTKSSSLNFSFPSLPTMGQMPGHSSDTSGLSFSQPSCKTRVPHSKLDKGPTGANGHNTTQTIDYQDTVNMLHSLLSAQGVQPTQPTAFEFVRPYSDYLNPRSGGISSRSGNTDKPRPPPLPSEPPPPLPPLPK
MEASURED_ENDPOINT: IC50

Take a look at these entries with their results.
COMPOUND | ASSAYED_SYSTEM | IC50
CP(C)(=O)c1c2ccc3c(c[nH]c13)-c1nc(ncc1C(F)(F)F)N[C@H]1CCCCN(CCCCNC2=O)C1 | CDK9-CyclinT1 (Homo sapiens (Human), UniProt P50750) | > 1000 nM
CN1CCCCN2CCC[C@@H](C2)Nc2ncc(C(F)(F)F)c(n2)-c2c[nH]c3c(P(C)(C)=O)c(ccc23)C1=O [Formate of compound 1] | CDK9-CyclinT1 (Homo sapiens (Human), UniProt P50750) | 723 nM
CN1CCCCN2CCCC[C@@H](C2)Nc2ncc(C(F)(F)F)c(n2)-c2c[nH]c3c(P(C)(C)=O)c(ccc23)C1=O | CDK9-CyclinT1 (Homo sapiens (Human), UniProt P50750) | > 1000 nM

Here's the next entry for you.
### Prompt I have this compound here, `CP(C)(=O)c1c2ccc3c(c[nH]c13)-c1nc(ncc1C(F)(F)F)N[C@H]1CCCN(CCCCNC2=O)C1` , and I need its recorded IC50.
### Response > 1000 nM

====

// reported IC50 per item
Target: CDK2/CyclinE1 (Homo sapiens (Human))
Assay: In vitro CDK2/CyclinE1 enzyme activity assay (TR-FRET)
Conditions: Ulight-4E-BP1 peptide, 25° C. 120 minutes
Description: Experimental Example 2: In Vitro CDK2/[…] Enzyme Activity Assay CDK2/CyclinE1 was purchased from SignalChem. Ulight-4E-BP1 peptide, Eu-anti-phospho-tyrosine antibody, and 1× detection buffer were purchased from PerkinElmer. High-purity ATP was purchased from Promega. EDTA was purchased from Sigma. Nivo multimode microplate reader (PerkinElmer). Preparation of kinase buffer: the kinase buffer containing 50 mM HEPES, 1 mM EDTA, 10 mM MgCl2, 0.01% Brij-35, pH 7.4. […]
Write down the numeric answer in nM and omit the unit.

MOLECULE | ENDPOINT_UNIT | IC50
CN1CCCCN2CCC[C@@H](C2)Nc2ncc(C(F)(F)F)c(n2)-c2c[nH]c3c(P(C)(C)=O)c(ccc23)C1=O [Formate of compound 1] | nM | 253

Here's the next entry for you.
### Prompt I have this molecule here, CP(C)(=O)c1c2ccc3c(c[nH]c13)-c1nc(ncc1C(F)(F)F)N[C@H]1CCCN(CCCCNC2=O)C1 [Compound 5] , and I need its recorded IC50.
### Response 738

====

target: CDK2/CyclinE1 (Homo sapiens (Human), UniProt P24941); experiment: In vitro CDK2/CyclinE1 enzyme activity assay (TR-FRET); conditions: Ulight-4E-BP1 peptide, 25° C. 120 minutes
pIC50: −log10 of the molar value.
MEASURED_ENDPOINT: pIC50

SMILES_INPUT | RECORDED_VALUE
CP(C)(=O)c1c2ccc3c(c[nH]c13)-c1nc(ncc1C(F)(F)F)N[C@H]1CCCN(CCCCCCO2)C1 | < 6.00

### Prompt I have this compound here, `CN1CCCCN2CCCC[C@@H](C2)Nc2ncc(C(F)(F)F)c(n2)-c2c[nH]c3c(P(C)(C)=O)c(ccc23)C1=O` , and I need its recorded pIC50.
### Response < 6.00

### Prompt What do you get for `CP(C)(=O)c1c2ccc3c(c[nH]c13)-c1nc(ncc1C(F)(F)F)N[C@H]1CCCCN(CCCCNC2=O)C1` ?
### Response < 6.00
